Provenance of the data: PubChem BioAssay (NCI)

- Tested on: SN12C renal
- ASSAY_NAME: NCI tumour cell line growth inhibition, 48 h
MEASURED_QUANTITY: GI50

Study these solved cases before continuing.
Clc1ccc(CNc2nccc(-c3cnn4ncccc34)n2)cc1; 7540 nM
COc1cc(F)c(/C=C/c2cc(/C=C/c3cc(OC)c(OC)cc3F)n(-c3cc(F)cc(F)c3)n2)cc1OC; 2040 nM
O=C(N/N=C/c1ccc(Cl)cc1Cl)c1ccc2nc(-c3ccc(Cl)cc3)[nH]c2c1; 1960 nM

The molecule listed as C=C1C(OC/C=C/COC2O[C@@H]3O[C@@]4(C)CC[C@H]5[C@H](C)CC[C@@H](C2=C)[C@@]35OO4)O[C@@H]2O[C@@]3(C)CC[C@H]4[C@H](C)CC[C@@H]1[C@@]24OO3 (stereo not given in full) shows GI50 equal to 1330 nM

// GI50 lookup, molecule = CSc1ccc(SC2c3ccc(C)cc3Oc3nc(N)c(C#N)c(N)c32)cc1 (stereo not given) , result: 1590 nM

====

- Test system: IGROV1 ovarian
- ASSAY_NAME: NCI tumour cell line growth inhibition, 48 h
Measured TGI by item

COc1c2ccsc2c(OC)c2ccsc12; > 100 µM
Cc1cc2oc(C)c(S(=O)(=O)NC(=O)Nc3ccc(Cl)cc3)c(=O)c2c(=O)o1; > 100 µM
O=[N+]([O-])c1ccc(N2N=C(c3ccc4ccccc4c3O)CC2c2ccc(Cl)cc2)c([N+](=O)[O-])c1 (stereo unspecified); > 100 µM
CN(C)CCSCCO; > 100 µM
O=C(N/N=C/c1ccc(Cl)cc1Cl)c1ccc2nc(-c3ccc(Cl)cc3)[nH]c2c1; 2.98 µM

Per the records, this compound ( COc1cccc(N=N/C(=N\NC(=O)c2cc(Br)ccc2O)c2ccc(N(CCC#N)CCC#N)cc2OC)c1 ) has TGI equal to > 150 µg/mL

====

- System: SNB-75 CNS
- ASSAY_NAME: NCI tumour cell line growth inhibition, 48 h; in the data active = GI50 below about 0.43 µM; inactive = the rest
Write down one outcome, taken from Yes for active, No for inactive

COc1ccc(-c2ccc(-c3ccc(C(=N)N)cn3)o2)cc1Cl; No
Cc1ncc(C(=O)Nc2ccc(CN3CCN(C)CC3)c(C(F)(F)F)c2)cc1C#Cc1c(N)ncc2ccccc12; No
C=C1C(OC/C=C/COC2O[C@@H]3O[C@@]4(C)CC[C@H]5[C@H](C)CC[C@@H](C2=C)[C@@]35OO4)O[C@@H]2O[C@@]3(C)CC[C@H]4[C@H](C)CC[C@@H]1[C@@]24OO3 (some centres undefined); No

Problem: What did this assay record as the result for COc1cc(NC(=O)NCc2ccco2)ccc1-c1ccc(NC(=O)NCc2ccco2)cc1OC ?
Result: No

Problem: Hi, do you know how Fc1ccc2c(c1)C1=C(CO2)C(c2ccc(Cl)cc2)NC(=S)N1 (centres undefined) came out in this test?
Result: No

Problem: Could you please tell me the result logged for CCOc1nccc2c1nc(-c1nonc1N)n2CC in this assay?
Result: No

Problem: # lookup: test call for COc1ccc(-c2cc(-c3cccc(NS(C)(=O)=O)c3)nc(N)c2C#N)cc1
Result: Yes

Problem: What is the recorded call for this molecule in the test? O=C(N/N=C/c1ccc(Cl)cc1Cl)c1ccc2nc(-c3ccc(Cl)cc3)[nH]c2c1
Result: No

Problem: Hey, what did the test say about CC(C)C[C@H](NC(=O)CCn1ccc2ncccc2c1=O)B(O)O ?
Result: No
